- TARGET OR TEST SYSTEM: T1, GAL4 activation domain fusion (ACT) to HAB1 (UniProt Q9CAJ0 23-511, limits assumed)
- T1 construct: pACT-HAB1 fusion in yeast reporter strains; also called pACT-HAB1
- T1 sequence (looked up): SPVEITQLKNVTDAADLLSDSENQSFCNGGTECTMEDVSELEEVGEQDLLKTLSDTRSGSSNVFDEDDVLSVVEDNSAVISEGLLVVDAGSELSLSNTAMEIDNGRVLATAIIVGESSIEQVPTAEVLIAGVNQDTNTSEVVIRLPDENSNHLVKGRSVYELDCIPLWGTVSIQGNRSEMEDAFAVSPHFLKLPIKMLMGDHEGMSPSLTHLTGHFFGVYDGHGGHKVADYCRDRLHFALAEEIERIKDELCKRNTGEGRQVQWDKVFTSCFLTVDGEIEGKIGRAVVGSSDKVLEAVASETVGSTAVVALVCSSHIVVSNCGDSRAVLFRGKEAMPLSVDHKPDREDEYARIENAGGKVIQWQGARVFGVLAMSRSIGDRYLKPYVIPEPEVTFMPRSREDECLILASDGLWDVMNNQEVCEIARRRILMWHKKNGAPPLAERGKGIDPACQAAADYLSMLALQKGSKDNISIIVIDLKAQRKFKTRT
- EXPERIMENT SUMMARY: yeast two-hybrid, X-gal; lowest mandipropamid concentration giving signal
Threshold values for the binders below.
Express the result in µM but write the number alone.

BINDER	READOUT UNIT	Threshold
PYR1^K59R,F108A,S122G,V81T (receptor, not shown: small tags and cut ends, pBD-PYR1 fusion in yeast) MPSELTPEERSELKNSIAEFHTYQLDPGSCSSLHAQRIHAPPELVWSIVRRFDKPQTYRHFIKSCSVEQNFEMRVGCTRDTIVISGLPANTSTERLDILDDERRVTGASIIGGEHRLTNYKGVTTVHRFEKENRIWTVVLESYVVDMPEGNSEDDTRMFADTVVKLNLQKLATVAEAMARNSGDGSGSQVT	µM	0.25
PYR1^K59R,F108A,S122G,V81I (receptor, not shown: small tags and cut ends, pBD-PYR1 fusion in yeast) MPSELTPEERSELKNSIAEFHTYQLDPGSCSSLHAQRIHAPPELVWSIVRRFDKPQTYRHFIKSCSVEQNFEMRVGCTRDIIVISGLPANTSTERLDILDDERRVTGASIIGGEHRLTNYKGVTTVHRFEKENRIWTVVLESYVVDMPEGNSEDDTRMFADTVVKLNLQKLATVAEAMARNSGDGSGSQVT	µM	0.25
PYR1^K59R,V81I,F108A,S122G,A160V (receptor, pBD-PYR1 fusion in yeast) MPSELTPEERSELKNSIAEFHTYQLDPGSCSSLHAQRIHAPPELVWSIVRRFDKPQTYRHFIKSCSVEQNFEMRVGCTRDIIVISGLPANTSTERLDILDDERRVTGASIIGGEHRLTNYKGVTTVHRFEKENRIWTVVLESYVVDMPEGNSEDDTRMFVDTVVKLNLQKLATVAEAMARNSGDGSGSQVT	µM	0.05

PYR1^K59R,F159I (receptor, not shown: small tags and cut ends, pBD-PYR1 fusion in yeast; also called K59R F1591) MPSELTPEERSELKNSIAEFHTYQLDPGSCSSLHAQRIHAPPELVWSIVRRFDKPQTYRHFIKSCSVEQNFEMRVGCTRDVIVISGLPANTSTERLDILDDERRVTGFSIIGGEHRLTNYKSVTTVHRFEKENRIWTVVLESYVVDMPEGNSEDDTRMIADTVVKLNLQKLATVAEAMARNSGDGSGSQVT yielded Threshold of 100

PYR1^K59R,F108A,S122G,F159M (receptor, pBD-PYR1 fusion in yeast) MPSELTPEERSELKNSIAEFHTYQLDPGSCSSLHAQRIHAPPELVWSIVRRFDKPQTYRHFIKSCSVEQNFEMRVGCTRDVIVISGLPANTSTERLDILDDERRVTGASIIGGEHRLTNYKGVTTVHRFEKENRIWTVVLESYVVDMPEGNSEDDTRMMADTVVKLNLQKLATVAEAMARNSGDGSGSQVT yielded Threshold of 0.25

PYR1^K59R,F159A (receptor, not shown: small tags and cut ends, pBD-PYR1 fusion in yeast) MPSELTPEERSELKNSIAEFHTYQLDPGSCSSLHAQRIHAPPELVWSIVRRFDKPQTYRHFIKSCSVEQNFEMRVGCTRDVIVISGLPANTSTERLDILDDERRVTGFSIIGGEHRLTNYKSVTTVHRFEKENRIWTVVLESYVVDMPEGNSEDDTRMAADTVVKLNLQKLATVAEAMARNSGDGSGSQVT yielded Threshold of 100
